Here, each record is paired with measured T/C data.
# Test system: CD2F1 mice, L1210 leukemia ip, survival T/C
# ASSAY_SUMMARY: NCI In Vivo Anticancer Drug Screen. Data for tumor model L1210 Leukemia (intraperitoneal) in CD2F1 (CDF1) mice
# STUDY_CONDITIONS: endpoint: mean survival time; dose: 25.0 mg/kg/injection; schedule: Q01DX001 (ip); vehicle: saline with Tween-80; higher = longer survival
Toxic doses and inconclusive results are not listed.
MEASURED_PARAMETER: T/C

>>> print(df.to_string())
                                   molecule  measured_parameter  observed_measurement
0  N=C(N)c1ccc(OCCCCOc2ccc(NC(=O)Nc3ccc(S(=O)(=O)F)cc3Cl)cc2)cc1                 T/C       98 % of control
1  Cc1ccc(S(=O)(=O)/C=C(\Cl)S(=O)(=O)C(C)(C)C)cc1                 T/C       93 % of control
2  C#CC(OC(=O)NC(CCSC)C(=O)OC)(c1ccccc1)c1ccccc1 (stereo unspecified)                 T/C      102 % of control
3  O=C(Nc1cccc2ccccc12)OC1CCCCC1Br (stereo unspecified)                 T/C      100 % of control
4  CC1(C)N=C(N)N=C(N)N1c1ccc(OCCCCNC(=O)Nc2cccc(S(=O)(=O)F)c2)c(Cl)c1                 T/C      105 % of control
5       NNc1c(F)c(F)c2c(F)c(F)c(F)c(F)c2c1F                 T/C       97 % of control

====

# System: CD2F1 mice, L1210 leukemia ip, survival T/C
# ASSAY_SUMMARY: NCI In Vivo Anticancer Drug Screen. Data for tumor model L1210 Leukemia (intraperitoneal) in CD2F1 (CDF1) mice
# STUDY_CONDITIONS: endpoint: mean survival time; dose: 400.0 mg/kg/injection; schedule: Q04DX003 (ip); vehicle: saline; higher = longer survival
Toxic doses and inconclusive results are not listed.
# T/C per record follows
MEASURED_PARAMETER: T/C

                                    compound  observed_measurement
 0        CC1(O)CC2CCC1C2 (stereo not drawn)       87 % of control
 1     O=[N+]([O-])c1ccc(S(=O)(=O)Cl)c(Cl)c1       86 % of control
 2                            CC(=O)CCC(C)=O       94 % of control
 3  CC1(C)OCC(C2OC3OC(C)(C)OC3C2O)O1 (stereo not drawn)      100 % of control
 4                     CCCCCCCCCCOCCCCCCCCCC       94 % of control
 5  CCCCN(CCCC)CCNc1ccc(C)c2sc3ccccc3c(=O)c12       87 % of control
 6  O=S1(=O)CC(S(=O)(=O)O)C(S(=O)(=O)O)C1 (stereo not drawn)       93 % of control
 7  OC(CN(C1CCCCC1)C1CCCCC1)c1ccc(Cl)c(Cl)c1 (stereo not drawn)      101 % of control
 8                 OCC(F)(F)C(F)(F)C(F)(F)CO      104 % of control
 9  Nc1ncn(C2OC(CO)C(O)C2O)c(=O)n1 (stereo not drawn)      222 % of control
10       NCC(=O)Nc1ccc(Cl)cc1C(=O)c1ccc[nH]1       96 % of control
11  CCC(=O)O[C@H]1CC[C@H]2[C@@H]3C[C@H](F)C4=CC(=O)CC[C@]4(C)[C@H]3CC[C@]12C       95 % of control
12                              NCCCCCC(=O)O      102 % of control
13  Cc1ccc(C(CS(=O)(=O)c2ccc(C)cc2)c2ccccc2)cc1 (stereo not drawn)       98 % of control
14          CC(=O)Oc1c(Br)cc(Br)cc1-c1ccccc1      114 % of control
15  CCOC(=O)C(N)CSSCC(N)C(=O)OCC (stereo not drawn)       97 % of control
16  CN(C)C1C(c2ccccc2)S(=O)(=O)C1(C)C (stereo not drawn)       97 % of control
17  COCCOCCOCCOCCOCCOCCOCCOC(=O)Nc1ccc(C)c(NC(=O)OCCOCCOCCOCCOCCOCCOCCOC)c1      100 % of control
18  Cc1cccc(CNc2ccc(S(=O)(=O)c3ccc(NCc4cccc(C)n4)cc3)cc2)n1       93 % of control
19            O=S(=O)(O)c1cncc(S(=O)(=O)O)n1       93 % of control
20   O=C(O)C(O)C(O)C(=O)O (stereo not drawn)      101 % of control
21                         CCN(CC)CCCNC(C)=O      101 % of control
22                                 CCC/C=N\O      100 % of control
23                       c1ccc(CC2=NCCO2)cc1       98 % of control
24                   O=c1[nH]cc(F)c(=O)[nH]1      161 % of control
25                        CC(=O)NCCCN1CCOCC1       98 % of control
26                            CN(CCC#N)CCC#N      101 % of control
27                  O=C(O)CCCOc1ccc(Cl)cc1Cl       97 % of control
